Assay: Protease stability in simulated gastric fluids (FaSSGF) (Table 7)
Format: in vitro ADME
Conditions: fassgf with pepsin, 60 min, 37° C., read-out: Remaining percentage of peptide compound, FaSSGF 60 (min)
Bridge positions count the residues as written; N and C are the ends. Square brackets hold non-standard residues; d marks the D form. Peptide text beside a SMILES is read from it. * marks the point of attachment. Trp(7-Me) = Cc1cccc2c(C[C@H](N)C(=O)O)c[nH]c12; 2Nal = N[C@@H](Cc1ccc2ccccc2c1)C(=O)O; 3Pal = N[C@@H](Cc1cccnc1)C(=O)O; AEEEA = NCCOCCOCCOCC(=O)O; Thp = NC1(C(=O)O)CCOCC1; Me2NCH2CH2 = CN(C)CC*; Aib = CC(C)(N)C(=O)O; Sar = CNCC(=O)O
Reported endpoint: remaining at 1 h, 1 µM

Note remaining at 1 h, 1 µM for the compound shown: Cc1cccc2c(C[C@@H]3NC(=O)COCCOCCOCCNC(=O)CC[C@@H](C(=O)N[C@@H](CC(N)=O)C(=O)N[C@@H](Cc4cccnc4)C(=O)N(C)CC(N)=O)NC(=O)C(C)(C)NC(=O)[C@H](Cc4ccc5ccccc5c4)NC(=O)[C@H](Cc4ccc(OCCN(C)C)cc4)NC(=O)C4(CCOCC4)NC(=O)[C@H](CCC(N)=O)NC3=O)c[nH]c12 [compound 14] ([AEEEA][Trp(7-Me)]Q[Thp]Y(Me2NCH2CH2)[2Nal][Aib]EN[3Pal][Sar]-NH2; lactam N-8)
100%

###

Experiment: Chemical stability (relative purity loss) of peptide compounds in buffer formulations (Table 6)
Assay type: physicochemical
Settings: 50 mm hcl + acetonitrile, Buffer pH 1.1 (head; method: 50 mM HCl pH 1.2 + acetonitrile 3:1), 2° C. and 37° C., read-out: Chemical stability (relative purity loss), Buffer pH 1.1
Numbered stars: 1 amine (or outer) side, 2 acyl side, 3 side chain; on linkers, the order of the positions; unused ones are H or OH. Bridge positions count the residues as written; N and C are the ends. Square brackets hold non-standard residues; d marks the D form. Peptide text beside a SMILES is read from it. * marks the point of attachment. Lys(Me,(CH2)4NMe(CH2)4CO) = CN(CCCCC(=O)[*:3])CCCCN(C)CCCC[C@H](N[*:1])C(=O)[*:2]; X2 = O=C(Cc1ccc(-c2ccc(CC(=O)[*:2])cc2)cc1)[*:1]; Trp(7-Me) = Cc1cccc2c(C[C@H](N)C(=O)O)c[nH]c12; Sebacoyl = O=C(CCCCCCCCC(=O)[*:2])[*:1]; 2Nal = N[C@@H](Cc1ccc2ccccc2c1)C(=O)O; X1 = O=C(CCCCCCCCCCCCCN[*:1])[*:2]; 3Pal = N[C@@H](Cc1cccnc1)C(=O)O; Aun = NCCCCCCCCCCC(=O)O; Thp = NC1(C(=O)O)CCOCC1; Me2NCH2CH2 = CN(C)CC*; Aib = CC(C)(N)C(=O)O; Aoc = NCCCCCCCC(=O)O; Sar = CNCC(=O)O
With a cut-off of 6%, any degraded at 24 h strictly below it is called 1 (yes); any degraded at 24 h meeting it or above is called 0 (no).

{"columns": ["Compound", "Class assignment"],
 "data": [
  ["Cc1cccc2c(C[C@@H]3NC(=O)CCCCCCCCCCCCCNC(=O)CC[C@@H](C(=O)N[C@@H](CC(N)=O)C(=O)N[C@@H](Cc4cccnc4)C(=O)N(C)CC(N)=O)NC(=O)C(C)(C)NC(=O)[C@H](Cc4ccc5ccccc5c4)NC(=O)[C@H](Cc4ccc(OCCN(C)C)cc4)NC(=O)C4(CCOCC4)NC(=O)[C@H](CCC(N)=O)NC3=O)c[nH]c12 [compound 1] ([X1][Trp(7-Me)]Q[Thp]Y(Me2NCH2CH2)[2Nal][Aib]EN[3Pal][Sar]-NH2; lactam N-8)", "0 (no)"],
  ["Cc1cccc2c(C[C@@H]3NC(=O)Cc4ccc(cc4)-c4ccc(cc4)CC(=O)NCCCC[C@@H](C(=O)N[C@@H](CC(N)=O)C(=O)N[C@@H](Cc4cccnc4)C(=O)N(C)CC(N)=O)NC(=O)C(C)(C)NC(=O)[C@H](Cc4ccc5ccccc5c4)NC(=O)[C@H](Cc4ccc(OCCN(C)C)cc4)NC(=O)C4(CCOCC4)NC(=O)[C@H](CCC(N)=O)NC3=O)c[nH]c12 [compound 15] ([Trp(7-Me)]Q[Thp]Y(Me2NCH2CH2)[2Nal][Aib]KN[3Pal][Sar]-NH2; linker N-7 via X2)", "0 (no)"],
  ["CC(=O)NCCCC[C@@H]1NC(=O)[C@H](Cc2c[nH]c3c(C)cccc23)NC(=O)CCCCN(C)CCCCN(C)CCCC[C@@H](C(=O)NCC(=O)N[C@@H](Cc2cccnc2)C(=O)N(C)CC(N)=O)NC(=O)C(C)(C)NC(=O)[C@H](Cc2ccc3ccccc3c2)NC(=O)[C@H](Cc2ccc(OCCN(C)C)cc2)NC(=O)C2(CCOCC2)NC1=O [compound 29] ([Trp(7-Me)]K(Ac)[Thp]Y(Me2NCH2CH2)[2Nal][Aib][Lys(Me,(CH2)4NMe(CH2)4CO)]G[3Pal][Sar]-NH2; lactam N-7)", "1 (yes)"],
  ["CC(=O)NCCCC[C@@H]1NC(=O)[C@H](Cc2c[nH]c3c(C)cccc23)NC(=O)CCCCCCCCCCNC(=O)CC[C@@H](C(=O)N[C@@H](CC(N)=O)C(=O)N[C@@H](Cc2cccnc2)C(=O)N(C)CC(N)=O)NC(=O)C2(CCOCC2)NC(=O)[C@H](Cc2ccc3ccccc3c2)NC(=O)[C@H](Cc2ccc(OCCN(C)C)cc2)NC(=O)C2(CCOCC2)NC1=O [compound 50] ([Aun][Trp(7-Me)]K(Ac)[Thp]Y(Me2NCH2CH2)[2Nal][Thp]EN[3Pal][Sar]-NH2; lactam N-8)", "1 (yes)"],
  ["CN(C)CCOc1ccc(C[C@@H]2NC(=O)C3(CCOCC3)NC(=O)[C@H](CCC(N)=O)NC(=O)[C@H](Cc3c[nH]c4ccccc34)NC(=O)CCCCN(C)CCCCN(C)CCCC[C@@H](C(=O)N[C@@H](CO)C(=O)N[C@@H](Cc3cccnc3)C(=O)N(C)CC(N)=O)NC(=O)C(C)(C)NC(=O)[C@H](Cc3ccc4ccccc4c3)NC2=O)cc1 [compound 41] (WQ[Thp]Y(Me2NCH2CH2)[2Nal][Aib][Lys(Me,(CH2)4NMe(CH2)4CO)]S[3Pal][Sar]-NH2; lactam N-7)", "1 (yes)"]
]}

Check if degraded at 24 h falls below 6% for CC(=O)NCCCC[C@@H]1NC(=O)[C@H](Cc2c[nH]c3c(C)cccc23)NC(=O)CCCCCCCCCCNC(=O)CC[C@@H](C(=O)N[C@@H](CC(N)=O)C(=O)N[C@@H](Cc2cccnc2)C(=O)N(C)CC(N)=O)NC(=O)C(C)(C)NC(=O)[C@H](Cc2ccc3ccccc3c2)NC(=O)[C@H](Cc2ccc(OCCN(C)C)cc2)NC(=O)C2(CCOCC2)NC1=O [compound 16] ([Aun][Trp(7-Me)]K(Ac)[Thp]Y(Me2NCH2CH2)[2Nal][Aib]EN[3Pal][Sar]-NH2; lactam N-8) .
1 (yes)

Check if degraded at 24 h falls below 6% for Cc1cccc2c(C[C@@H]3NC(=O)CCCCCCCNC(=O)CC[C@@H](C(=O)N[C@@H](CC(N)=O)C(=O)N[C@@H](Cc4cccnc4)C(=O)N(C)CC(N)=O)NC(=O)C(C)(C)NC(=O)[C@H](Cc4ccc5ccccc5c4)NC(=O)[C@H](Cc4ccc(OCCN(C)C)cc4)NC(=O)C4(CCOCC4)NC(=O)[C@H](CC(C)C)NC3=O)c[nH]c12 [compound 9] ([Aoc][Trp(7-Me)]L[Thp]Y(Me2NCH2CH2)[2Nal][Aib]EN[3Pal][Sar]-NH2; lactam N-8) .
1 (yes)

Check if degraded at 24 h falls below 6% for Cc1cccc2c(C[C@@H]3NC(=O)CCCCN(C)CCCCN(C)CCCC[C@@H](C(=O)NCC(=O)N[C@@H](Cc4cccnc4)C(=O)N(C)CC(N)=O)NC(=O)C(C)(C)NC(=O)[C@H](Cc4ccc5ccccc5c4)NC(=O)[C@H](Cc4ccc(OCCN(C)C)cc4)NC(=O)C4(CCOCC4)NC(=O)[C@H](CCC(N)=O)NC3=O)c[nH]c12 [compound 28] ([Trp(7-Me)]Q[Thp]Y(Me2NCH2CH2)[2Nal][Aib][Lys(Me,(CH2)4NMe(CH2)4CO)]G[3Pal][Sar]-NH2; lactam N-7) .
0 (no)

Check if degraded at 24 h falls below 6% for Cc1cccc2c(C[C@@H]3NC(=O)CCCCCCCCC(=O)NCCCC[C@@H](C(=O)N[C@@H](CC(N)=O)C(=O)N[C@@H](Cc4cccnc4)C(=O)N(C)CC(N)=O)NC(=O)C(C)(C)NC(=O)[C@H](Cc4ccc5ccccc5c4)NC(=O)[C@H](Cc4ccc(OCCN(C)C)cc4)NC(=O)C4(CCOCC4)NC(=O)[C@H](CCC(N)=O)NC3=O)c[nH]c12 [compound 11] ([Trp(7-Me)]Q[Thp]Y(Me2NCH2CH2)[2Nal][Aib]KN[3Pal][Sar]-NH2; linker N-7 via Sebacoyl) .
0 (no)

Check if degraded at 24 h falls below 6% for CC(=O)NCCCC[C@@H]1NC(=O)[C@H](Cc2c[nH]c3c(C)cccc23)NC(=O)CCCCN(C)CCCCN(C)CCCC[C@@H](C(=O)N[C@@H](CC(N)=O)C(=O)N[C@@H](Cc2cccnc2)C(=O)N(C)CC(N)=O)NC(=O)C(C)(C)NC(=O)[C@H](Cc2ccc3ccccc3c2)NC(=O)[C@H](Cc2ccc(OCCN(C)C)cc2)NC(=O)C2(CCOCC2)NC1=O [compound 32] ([Trp(7-Me)]K(Ac)[Thp]Y(Me2NCH2CH2)[2Nal][Aib][Lys(Me,(CH2)4NMe(CH2)4CO)]N[3Pal][Sar]-NH2; lactam N-7) .
1 (yes)
